Would you mind telling me the reported log10 MCC at 72 h of each entry?
# Assay name: Cytotoxicity against MDCK cells assessed as changes in cell morphology after 72 hrs […]
# Type: cell-based, Canis lupus familiaris
# Test conditions: dog
In plain terms, each number is the log10 of measured MCC at 72 h in µM.

Ask: Would you kindly share the measured log10 MCC at 72 h for C1CNC2C3CC4CC(C3)CC2(C1)C4 (stereo unspecified) ?
Reply: 2.64

Ask: Requested field: log10 MCC at 72 h. Item: C1CC23CC4CC(CC(C4)C2N1)C3 (stereo unspecified)
Reply: 2.67

Ask: Suppose we examine the molecule CN1CCC23CC4CC(CC(C4)C12)C3 (stereo unspecified) ; what log10 MCC at 72 h value has been reported?
Reply: 1.92

Ask: Look up log10 MCC at 72 h for this molecule: "NC(=O)c1ncn([C@@H]2O[C@H](CO)[C@@H](O)[C@H]2O)n1"
Reply: 1.30

Ask: Need log10 MCC at 72 h, item CN1CCCC23CC4CC(CC(C4)C12)C3 (stereo unspecified)
Reply: 1.92

Ask: // returns reported log10 MCC at 72 h for input CN1CC2C3CC4CC(C3)CC2(C4)C1 (stereo unspecified)
Reply: 1.92

Ask: I would be grateful if you could share the reported log10 MCC at 72 h for C1CC2C3CC4CC(C3)CC2(CN1)C4 (stereo unspecified) .
Reply: 2.64

Ask: log10 MCC at 72 h for CCN1CCC23CC4CC(CC(C4)C12)C3 (stereo unspecified) ?
Reply: 2.64

Ask: For the molecule C1C2CC3CC1CC1(CNCC31)C2 (stereo unspecified) , what log10 MCC at 72 h is on record?
Reply: 1.97

---

Readout type: EC50 (µM)
Dear colleague, please return just the value in µM, with no unit written.

Ask: Could you share what EC50 was measured for "NC(=O)c1ncn([C@@H]2O[C@H](CO)[C@@H](O)[C@H]2O)n1" , tested on Influenza A virus?
Reply: 8.7

---

Give selectivity ratio for every item shown.
# Assay name: Selectivity index, ratio of MCC for MDCK cells to EC50 for influenza A virus H3N2
# Type: toxicity, cell-based
# Test conditions: dog

Ask: Which selectivity ratio reading was recorded for the compound C1CC2C3CC4CC(C3)CC2(CN1)C4 (centres undefined) ?
Reply: > 732

Ask: Form field: reported selectivity ratio of C1C2CC3CC1CC1(CNCC31)C2 (centres undefined)
Reply: 200

Ask: Which value of selectivity ratio has been reported for CCN1CCC23CC4CC(CC(C4)C12)C3 (centres undefined) in the records?
Reply: 128

Ask: Consider the compound CN1CC2C3CC4CC(C3)CC2(C4)C1 (centres undefined) and give its measured selectivity ratio.
Reply: 35

Ask: Returns the measured selectivity ratio for the input compound. Input: CN1CCCC23CC4CC(CC(C4)C12)C3 (centres undefined)
Reply: 19

Ask: Suppose we examine the compound CN1CCC23CC4CC(CC(C4)C12)C3 (centres undefined) ; what selectivity ratio value has been reported?
Reply: 11

Ask: Param item = C1CC23CC4CC(CC(C4)C2N1)C3 (centres undefined) ; retrieve measured selectivity ratio.
Reply: 217

Ask: Query: selectivity ratio; subject: C1CNC2C3CC4CC(C3)CC2(C1)C4 (centres undefined)
Reply: 106

Ask: Query: selectivity ratio; subject: "NC12CC3CC(CC(C3)C1)C2"
Reply: > 250
